For each record, write down the corresponding inhibition.
target: Protein kinase C beta type (Homo sapiens) (UniProt P05771); settings: at 1 µM;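 note: GSK PKIS screen, average inhibition of the PKC-beta2 splice variant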
Sequence (P05771 2-671 limits assumed): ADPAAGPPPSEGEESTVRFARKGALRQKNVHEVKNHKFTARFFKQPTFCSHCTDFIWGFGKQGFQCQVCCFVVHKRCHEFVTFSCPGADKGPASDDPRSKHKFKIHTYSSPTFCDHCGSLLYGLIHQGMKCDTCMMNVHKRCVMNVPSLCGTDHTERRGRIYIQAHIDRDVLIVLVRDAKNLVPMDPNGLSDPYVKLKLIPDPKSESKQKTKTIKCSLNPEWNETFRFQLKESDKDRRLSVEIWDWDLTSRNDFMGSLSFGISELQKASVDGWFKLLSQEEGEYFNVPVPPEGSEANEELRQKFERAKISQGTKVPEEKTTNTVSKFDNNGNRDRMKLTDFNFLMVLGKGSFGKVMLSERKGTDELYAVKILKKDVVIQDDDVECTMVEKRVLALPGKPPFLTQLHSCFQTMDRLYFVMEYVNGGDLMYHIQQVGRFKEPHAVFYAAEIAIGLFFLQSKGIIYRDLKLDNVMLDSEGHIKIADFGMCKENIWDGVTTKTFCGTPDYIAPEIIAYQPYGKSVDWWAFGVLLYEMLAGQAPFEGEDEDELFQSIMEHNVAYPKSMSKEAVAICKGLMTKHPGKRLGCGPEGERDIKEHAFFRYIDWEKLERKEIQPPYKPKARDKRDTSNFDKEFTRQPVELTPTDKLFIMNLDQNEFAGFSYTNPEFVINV
Description: GSK_PKIS: PKC-beta2 (splice variant) mean inhibition at 1 uM [Nanosyn]
Report the figure in % without appending any unit label.

Request: If you can, please state the reported inhibition value of `c1cnn2ncc(-c3ccnc(NCCCN4CCOCC4)n3)c2c1` .
Response: 3.47

Request: If you can, please state the reported inhibition value of `NC(=O)c1ccc2c(-c3ccnc(NCCCO)n3)c(-c3ccc(F)cc3)nn2c1` .
Response: 24.3

Request: If you can, please state the reported inhibition value of `CS(=O)(=O)Nc1ccc(-c2ccc3c(NC(=O)C4CC4)n[nH]c3c2)cc1` .
Response: 1.78

Request: If you can, please state the reported inhibition value of `O=C(O[C@H]1CN[C@H](C#Cc2cc3ncnc(Nc4ccc5c(cnn5Cc5ccccc5)c4)c3s2)C1)N1CCOCC1` .
Response: -0.06

Request: If you can, please state the reported inhibition value of `NS(=O)(=O)c1ccc(N/N=C2\C(=O)Nc3ccc(C(=O)NCc4ccncc4)cc32)cc1` .
Response: 4.09

Request: If you can, please state the reported inhibition value of `Fc1ccc(Nc2nccc(-c3c(-c4ccc(C(F)(F)F)cc4)nn4ncccc34)n2)cc1F` .
Response: 0.3

Request: If you can, please state the reported inhibition value of `CS(=O)(=O)CCNCc1ccoc1-c1ccc2ncnc(Nc3ccc(OCc4ccccc4)cc3)c2c1` .
Response: 0.72

Request: If you can, please state the reported inhibition value of `COc1cc(Nc2ncc(-c3ccccc3)o2)cc(OC)c1` .
Response: 2.17

Request: If you can, please state the reported inhibition value of `COc1cc2c(cc1Nc1nc(Nc3cccc(F)c3C(N)=O)c3cc[nH]c3n1)N(C(=O)CN1CCN(C(C)C)CC1)CC2` .
Response: 2.64

Request: If you can, please state the reported inhibition value of `COc1cc(N2CCN(C(C)C)CC2)ccc1Nc1nc(Nc2cccc(F)c2C(=O)O)c2cc[nH]c2n1` .
Response: 2.08

Request: If you can, please state the reported inhibition value of `FC(F)(F)CNc1nccc(-c2cnn3ncccc23)n1` .
Response: 1.72

Request: If you can, please state the reported inhibition value of `O=C1Nc2ccccc2/C1=C1\CCc2cc(O)ccc21` .
Response: 1.69

Request: If you can, please state the reported inhibition value of `Cc1c2ccc(N(C)c3ccnc(Nc4cccc(S(N)(=O)=O)c4)n3)cc2nn1C` .
Response: 2.7

Request: If you can, please state the reported inhibition value of `CCS(=O)(=O)c1ccc(OC)c(Nc2ncc(-c3cccc(C(C)=O)c3)o2)c1` .
Response: 1.89

Request: If you can, please state the reported inhibition value of `CNC(=O)c1ncccc1Nc1nc(Nc2cc3c(cc2OC)CCCN3C(=O)CN(C)C)nc2[nH]ccc12` .
Response: 7.12

Request: If you can, please state the reported inhibition value of `COc1ccc(Nc2ncc(-c3ccccc3)o2)cc1OC` .
Response: 1.4

Request: If you can, please state the reported inhibition value of `COC(=O)Nc1nc2cc(Oc3ccc(NC(=O)Nc4ccccc4)cc3)ccc2[nH]1` .
Response: 0.72

Request: If you can, please state the reported inhibition value of `c1ccc(-c2n[nH]cc2-c2ccnc(-c3ccc(OCCn4ccnc4)cc3)c2)nc1` .
Response: -0.29

Request: If you can, please state the reported inhibition value of `CNC(=O)c1sc(-n2cnc3cc(OC)c(OC)cc32)cc1OCc1ccccc1C(F)(F)F` .
Response: 1.38

Request: If you can, please state the reported inhibition value of `O=C(O[C@H]1CN[C@H](C#Cc2cc3ncnc(Nc4ccc5c(ccn5Cc5cc(F)ccc5F)c4)c3s2)C1)N1CCOCC1` .
Response: 0.99

* * *

biological target: cGMP-dependent protein kinase 2 (Homo sapiens); settings: at 1 µM;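 note: mean inhibition of PRKG2 from the GSK PKIS screen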
Use 4% as the dividing line for inhibition, with the line itself on the met side and lower values as not met.

Request: Confirm if inhibition reported for the compound `CS(=O)(=O)CCNCc1ccc(-c2ccc3ncnc(Nc4ccc(OCc5ccccc5)cc4)c3c2)o1` is 4% or above.
Response: not met

Request: Confirm if inhibition reported for the compound `Cc1c2ccc(N(C)c3ccnc(Nc4cccc(S(N)(=O)=O)c4)n3)cc2nn1C` is 4% or above.
Response: met

Request: Confirm if inhibition reported for the compound CC1=C(C(=O)Nc2ccc3[nH]ncc3c2)C(c2ccc(F)cc2)N=C(c2ccc(C(F)(F)F)nc2)N1 (stereo not given) is 4% or above.
Response: met

Request: Confirm if inhibition reported for the compound `COc1ccc(Nc2ncc(-c3ccccc3)o2)cc1OC` is 4% or above.
Response: not met

Request: Confirm if inhibition reported for the compound `O=C(Nc1n[nH]c2nnc(-c3cccnc3)cc12)C1CC1` is 4% or above.
Response: met

Request: Confirm if inhibition reported for the compound `CC(C)c1ccc(-c2cc(-c3c[nH]nc3-c3ccccn3)ccn2)cc1` is 4% or above.
Response: not met

Request: Confirm if inhibition reported for the compound `NS(=O)(=O)c1ccc(N/N=C2\C(=O)Nc3ccc(C(=O)NCc4ccncc4)cc32)cc1` is 4% or above.
Response: met

Request: Confirm if inhibition reported for the compound `Cc1cc(O)cc(C)c1/C=C/c1cncc(C(=O)OC(C)(C)C)c1` is 4% or above.
Response: not met

Request: Confirm if inhibition reported for the compound `COC(=O)Nc1nc2ccc(Oc3ccc(NC(=O)Nc4cc(C(F)(F)F)ccc4F)cc3)cc2s1` is 4% or above.
Response: not met

Request: Confirm if inhibition reported for the compound `CCCNc1cccc(-n2ncc3c(N/N=C/c4ccncc4)ncnc32)c1` is 4% or above.
Response: met

* * *

For each record, write down the corresponding inhibition.
biological target: Cytoplasmic tyrosine-protein kinase BMX (Homo sapiens); settings: at 0.1 µM
Description: GSK_PKIS: BMX mean inhibition at 0.1 uM [Nanosyn]
Report the figure in % without appending any unit label.

Request: If you can, please state the reported inhibition value of `COc1cccc(-n2ncc3c(N/N=C/c4ccc(C(=O)NCCN(C)C)cc4)ncnc32)c1` .
Response: 9.47

Request: If you can, please state the reported inhibition value of `FC(F)(F)CNc1nccc(-c2cnn3ncccc23)n1` .
Response: 4.12

Request: If you can, please state the reported inhibition value of `O=C(Nc1n[nH]c2nnc(-c3cccnc3)cc12)C1CC1` .
Response: -0.2

Request: If you can, please state the reported inhibition value of `COc1cc(N2CCN(C(C)C)CC2)ccc1Nc1nc(Nc2cccc(F)c2C(=O)O)c2cc[nH]c2n1` .
Response: 2.19

Request: If you can, please state the reported inhibition value of `COC(=O)Nc1nc2ccc(Oc3ccc(NC(=O)Nc4cc(C(F)(F)F)ccc4F)cc3)cc2s1` .
Response: 0.05

* * *

target: Cyclin-dependent kinase 2 (Homo sapiens); conditions: at 0.1 µM;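 note: mean inhibition of CDK2 in complex with cyclin E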
endpointName: inhibition (%)
Report the figure in % without appending any unit label.

Request: If you can, please state the reported inhibition value of `COc1cccc(Nc2nccc(-c3cnn4ncccc34)n2)c1` .
Response: 64.7

Request: If you can, please state the reported inhibition value of `COc1ccccc1-c1cc(/C=C2\C(=O)Nc3ncc(Br)cc32)cc(Br)c1O` .
Response: 7.89

Request: If you can, please state the reported inhibition value of `c1cnn2ncc(-c3ccnc(NCCCN4CCOCC4)n3)c2c1` .
Response: 5.32

Request: If you can, please state the reported inhibition value of `COc1cccc(-n2ncc3c(N/N=C/c4ccc(C(=O)NCCN(C)C)cc4)ncnc32)c1` .
Response: 13.4

Request: If you can, please state the reported inhibition value of `CCN1CCC(C(=O)Nc2n[nH]c3nnc(-c4cccc(F)c4F)cc23)CC1` .
Response: 3.75

* * *

biological target: Phosphorylase b kinase gamma catalytic chain, skeletal muscle/heart isoform (Homo sapiens) (UniProt Q16816); details: at 0.1 µM;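 note: values are averaged percent inhibition of PHKG1 kinase activity, from the GSK PKIS inhibitor-set screen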
Sequence (Q16816 whole entry, looked up, canonical isoform): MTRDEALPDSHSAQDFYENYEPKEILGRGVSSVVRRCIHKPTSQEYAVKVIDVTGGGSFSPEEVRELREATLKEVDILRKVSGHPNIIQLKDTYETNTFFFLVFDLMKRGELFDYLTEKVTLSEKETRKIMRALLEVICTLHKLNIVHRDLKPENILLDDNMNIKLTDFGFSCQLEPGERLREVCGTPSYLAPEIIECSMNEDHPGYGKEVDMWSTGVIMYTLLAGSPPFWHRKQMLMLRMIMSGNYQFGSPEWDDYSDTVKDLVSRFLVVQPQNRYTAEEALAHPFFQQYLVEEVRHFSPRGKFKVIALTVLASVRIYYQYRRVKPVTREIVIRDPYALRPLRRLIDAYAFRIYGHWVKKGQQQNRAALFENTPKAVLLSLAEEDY
endpointName: inhibition (%)
Report the figure in % without appending any unit label.

Request: If you can, please state the reported inhibition value of `O=C(Nc1n[nH]c2nnc(-c3cccnc3)cc12)C1CC1` .
Response: 0.1

Request: If you can, please state the reported inhibition value of CC1=C(C(=O)Nc2ccc3[nH]nc(C)c3c2)C(c2ccc(C(F)(F)F)cc2)CC(=O)N1 (stereo not drawn) .
Response: 4.32

Request: If you can, please state the reported inhibition value of `COC(=O)Nc1nc2cc(Oc3ccc(NC(=O)Nc4ccccc4)cc3)ccc2[nH]1` .
Response: 4.15

Request: If you can, please state the reported inhibition value of `CS(=O)(=O)CCNCc1ccc(-c2ccc3ncnc(Nc4ccc(OCc5cccc(C(F)(F)F)c5)cc4)c3c2)o1` .
Response: 2.44

Request: If you can, please state the reported inhibition value of `COc1c(C(N)=O)cc(-c2ccc(Cl)cc2)cc1-c1ccc(S(N)(=O)=O)cc1` .
Response: 0.45

Request: If you can, please state the reported inhibition value of `Cc1cc(O)cc(C)c1/C=C/c1cncc(C(N)=O)c1` .
Response: 3.36

Request: If you can, please state the reported inhibition value of `COc1cc(N2CCN(C(C)C)CC2)ccc1Nc1nc(Nc2cccc(F)c2C(=O)O)c2cc[nH]c2n1` .
Response: 8.07

Request: If you can, please state the reported inhibition value of `CS(=O)(=O)Nc1ccc(-c2ccc3c(NC(=O)C4CC4)n[nH]c3c2)cc1` .
Response: 1.67
